All values here come from patent US20110311550A1.

OD 450 nm for assorted binders
# target.desc: HCV E1E2 antigen, isolate UKN6.5.8 (hepatitis C virus, isolate UKN6.5.8)
# protocol.notes: ELISA, Fab on E1E2 antigen
Answer in OD 450 nm, number only, no unit symbol.

Known results for binders:
binder	readout.type	assay.result
Fab P6 (Fab, V domains shown) VH: EVQLLESGGGVVQPGKSLTVSCAASGFTFSTFTMHWVRQAPGKWLEWVAVISHDGGTEHYADSVTGRFTISRDNSKNTLHMQMNSLRLEDTAVYFCARGGPAYYLYNDVLTGYYNVVGDFWGQGTLVTVSS VL: ELIQSPGTLFLSSGERATLSCRASQSVSSSNLAWFQHKSGRAPRLLIYGASNRAPDIPDRFSGSGSGTDFTISISRLEPEDFAVYYCQRYGDSPPITFGQGTRLEIKR	OD 450 nm	0.12
Fab N4 (Fab, V domains shown) VH: VQLLEQSGPEVKKPGDSLRISCKMSGDSLVTTWIGWVRQKPGQGLEWMGIINPGDSSTNIYPGDSATRYGPSFQGQVTISIDKSTSTAYLQWNNVKASDTGIYYCARHVPVPISGTFLWREREMHDFGYFDDWGQGTLVIVSS VL: ELTLTQSPGTLSLSPGERATLSCRASQSVSNNYLAWYQQKPGQAPRLLIYGASSRATGIPDRFSGSGSGTGFTLIISRLEPEDFAVYYCQQYGSSSITFGQGTRLEIKR	OD 450 nm	0.44

Now look at this one.
Look at this binder and give its reported OD 450 nm. Fab Q2 (Fab, V domains shown) VH: VQLLEQSGAEVKKPGASVKVSCKASGYTFTNNGLNWVRQAPGQGLEWMGWISPYNGDTDFAHKFQGRISMTTDTSTNTAYMELRSLRSDDTAVYYCARDRNSAGGTWLFRDPPPGSTFFDSWGQGSLVTVSS VL: ELTQSPASLSLSPGGSATLACRASRGVNSNLAWYHQKPGQAPRLLIYSASTRATGIPGRFSGSGFGTEFTLTINNLQSDDFGVYYCQQYDDTPQITFGQGTRLDIKR
0.16
